# test: Pharmacokinetics in mice (exposure, AUC)
# Type: in vivo
# experimental.setup: male, CD1, plasma; mouse, 5 mg/kg, po

{"structure.string": "Cc1ccc(NC(=O)c2cccc(C(F)(F)F)c2)cc1-c1ccc2c([C@H](C)O)n[nH]c2n1", "AUC / ng·h/mL": 851}

----------
# measured.on: EphB4 (UniProt Ref: Q541P7) (Homo sapiens, UniProt P54760)
# Sequence (P54760 16-987, one chain of several): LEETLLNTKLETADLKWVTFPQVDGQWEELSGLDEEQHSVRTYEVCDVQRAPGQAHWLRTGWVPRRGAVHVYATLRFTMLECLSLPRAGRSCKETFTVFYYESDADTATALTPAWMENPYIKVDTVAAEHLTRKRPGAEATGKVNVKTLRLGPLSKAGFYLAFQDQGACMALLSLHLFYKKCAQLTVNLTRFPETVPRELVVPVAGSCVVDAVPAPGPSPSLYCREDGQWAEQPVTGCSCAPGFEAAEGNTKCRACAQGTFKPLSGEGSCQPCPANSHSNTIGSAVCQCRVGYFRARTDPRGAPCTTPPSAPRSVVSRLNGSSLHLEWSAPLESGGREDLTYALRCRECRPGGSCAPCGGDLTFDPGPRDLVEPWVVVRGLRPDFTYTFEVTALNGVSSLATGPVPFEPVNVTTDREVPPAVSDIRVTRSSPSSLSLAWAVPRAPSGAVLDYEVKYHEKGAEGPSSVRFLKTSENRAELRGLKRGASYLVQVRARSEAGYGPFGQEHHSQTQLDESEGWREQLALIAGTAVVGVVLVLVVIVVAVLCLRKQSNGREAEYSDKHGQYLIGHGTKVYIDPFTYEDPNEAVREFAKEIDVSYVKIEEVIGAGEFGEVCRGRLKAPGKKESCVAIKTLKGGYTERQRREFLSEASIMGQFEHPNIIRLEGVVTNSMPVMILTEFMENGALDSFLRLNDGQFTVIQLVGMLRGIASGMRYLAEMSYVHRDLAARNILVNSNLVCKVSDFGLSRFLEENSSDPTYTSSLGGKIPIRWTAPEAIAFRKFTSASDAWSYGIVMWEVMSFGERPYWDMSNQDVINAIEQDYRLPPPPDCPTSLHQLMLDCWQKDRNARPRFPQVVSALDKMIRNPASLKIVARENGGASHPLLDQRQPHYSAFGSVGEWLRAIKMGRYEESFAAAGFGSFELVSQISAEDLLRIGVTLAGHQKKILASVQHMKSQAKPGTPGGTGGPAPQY
# test: EphB4 assay (Reaction Biology HotSpot radioactive kinase assay)
# experimental.setup: ATP 10 μM; read-out: EphB4 potency IC50
pIC50: −log10 of the molar value.

{"molecule": "COc1cc(OC)cc(C(=O)Nc2ccc(C)c(-c3ccc4c([C@H](C)O)n[nH]c4n3)c2)c1", "measured.on": "EphB4 (UniProt Ref: Q541P7) (Homo sapiens, UniProt P54760)", "pIC50": "7.60 to 11.00"}
{"molecule": "CCc1n[nH]c2nc(-c3cc(NC(=O)c4cc(C)cc(C)c4)cnc3C)ccc12", "measured.on": "EphB4 (UniProt Ref: Q541P7) (Homo sapiens, UniProt P54760)", "pIC50": "7.60 to 11.00"}
{"molecule": "COc1cc(OC)cc(C(=O)Nc2ccc(C)c(-c3ccc4c(C)n[nH]c4n3)c2)c1", "measured.on": "EphB4 (UniProt Ref: Q541P7) (Homo sapiens, UniProt P54760)", "pIC50": "7.60 to 11.00"}
{"molecule": "Cc1ccc(NC(=O)c2cccc(C(F)(F)F)c2)cc1-c1ccc2c(C(O)CN3CCOCC3)n[nH]c2n1 (stereo not drawn)", "measured.on": "EphB4 (UniProt Ref: Q541P7) (Homo sapiens, UniProt P54760)", "pIC50": "7.60 to 11.00"}
{"molecule": "COc1cc(OC)cc(C(=O)Nc2ccc(C)c(-c3ccc4c(C(C)O)n[nH]c4n3)c2)c1 (stereo not drawn)", "measured.on": "EphB4 (UniProt Ref: Q541P7) (Homo sapiens, UniProt P54760)", "pIC50": "7.30 to 7.60"}
{"molecule": "Cc1ccc(NC(=O)c2cccc(N(C)C)c2)cc1-c1ccc2c(C(O)CN3CCOCC3)n[nH]c2n1 (stereo not drawn)", "measured.on": "EphB4 (UniProt Ref: Q541P7) (Homo sapiens, UniProt P54760)", "pIC50": "7.30 to 7.60"}
{"molecule": "COc1cc(OC)cc(C(=O)Nc2cnc(C)c(-c3ccc4c(C)n[nH]c4n3)c2)c1", "measured.on": "EphB4 (UniProt Ref: Q541P7) (Homo sapiens, UniProt P54760)", "pIC50": "7.30 to 7.60"}
{"molecule": "Cc1ccc(NC(=O)c2cccc(C(F)(F)F)c2)cc1-c1ccc2c(C(C)O)n[nH]c2n1 (stereo not drawn)", "measured.on": "EphB4 (UniProt Ref: Q541P7) (Homo sapiens, UniProt P54760)", "pIC50": "7.30 to 7.60"}
{"molecule": "Cc1cc(C)cc(C(=O)Nc2ccc(C)c(-c3ccc4c(C(O)CN5CCOCC5)n[nH]c4n3)c2)c1 (stereo not drawn)", "measured.on": "EphB4 (UniProt Ref: Q541P7) (Homo sapiens, UniProt P54760)", "pIC50": "7.60 to 11.00"}
{"molecule": "CCc1n[nH]c2nc(-c3cc(NC(=O)c4cc(OC)cc(OC)c4)cnc3C)ccc12", "measured.on": "EphB4 (UniProt Ref: Q541P7) (Homo sapiens, UniProt P54760)", "pIC50": "7.30 to 7.60"}
{"molecule": "CCc1n[nH]c2nc(-c3cc(NC(=O)c4cc(OC)cc(C(F)(F)F)c4)cnc3C)ccc12", "measured.on": "EphB4 (UniProt Ref: Q541P7) (Homo sapiens, UniProt P54760)", "pIC50": "< 7.00"}
{"molecule": "CCc1n[nH]c2nc(-c3cc(NC(=O)c4cc(C)cc(OCCOC)c4)ccc3C)ccc12", "measured.on": "EphB4 (UniProt Ref: Q541P7) (Homo sapiens, UniProt P54760)", "pIC50": "7.60 to 11.00"}
{"molecule": "Cc1cc(C)cc(C(=O)Nc2ccc(C)c(-c3ccc4c(CO)n[nH]c4n3)c2)c1", "measured.on": "EphB4 (UniProt Ref: Q541P7) (Homo sapiens, UniProt P54760)", "pIC50": "7.60 to 11.00"}
{"molecule": "COc1cc(OC)cc(C(=O)Nc2ccc(C)c(-c3ccc4c(C(O)CN5CCOCC5)n[nH]c4n3)c2)c1 (stereo not drawn)", "measured.on": "EphB4 (UniProt Ref: Q541P7) (Homo sapiens, UniProt P54760)", "pIC50": "7.30 to 7.60"}
{"molecule": "Cc1ccc(C(=O)Nc2cccc(C(F)(F)F)c2)cc1-c1ccc2c(C(O)CN3CCOCC3)n[nH]c2n1 (stereo not drawn)", "measured.on": "EphB4 (UniProt Ref: Q541P7) (Homo sapiens, UniProt P54760)", "pIC50": "7.30 to 7.60"}
{"molecule": "Cc1cccc(C(=O)Nc2ccc(C)c(-c3ccc4c(C(O)CN5CCOCC5)n[nH]c4n3)c2)c1 (stereo not drawn)", "measured.on": "EphB4 (UniProt Ref: Q541P7) (Homo sapiens, UniProt P54760)", "pIC50": "7.60 to 11.00"}
{"molecule": "Cc1ccc(NC(=O)c2cccc(C(F)(F)F)c2)cc1-c1ccc2c([C@H](C)O)n[nH]c2n1", "measured.on": "EphB4 (UniProt Ref: Q541P7) (Homo sapiens, UniProt P54760)", "pIC50": "7.60 to 11.00"}
{"molecule": "CCc1n[nH]c2nc(-c3cc(NC(=O)c4cc(C)cc(OCCN5CCOCC5)c4)ccc3C)ccc12", "measured.on": "EphB4 (UniProt Ref: Q541P7) (Homo sapiens, UniProt P54760)", "pIC50": "7.60 to 11.00"}
